test-protocol: Stability in acidic condition (0.1 N HCl, 37°C)
Format: physicochemical
condition-info: 2 h
From the text: Also, at 24 hr where stability of JM49 was only 4%, while its derivative Compound 6 had improved to 79%. Similar improvements in stability (from 6- 24 hr) were also observed in the conditions of rat plasma (Table 4) and human plasma (Table 5). […] Table 3. Relative compound concentration changes (stability) in acidic condition
recorded-endpoint: Concentration change (%) (stability) in acidic condition
Entry rule: numbers only, all in %.

Would you please look over these solved cases?
structure | reading-unit | readout-value
CCN(CC)C(=O)CC(C)(C(=O)/C=C/c1ccc(OC)c(OC)c1)C(=O)/C=C/c1ccc(OC)c(OC)c1 | % | 100
COc1ccc(/C=C/C(=O)C(C)(CC(=O)N(C)C)C(=O)/C=C/c2ccc(OC)c(OC)c2)cc1OC | % | 99
CCN(CC)C(=O)CC(C(=O)/C=C/c1ccc(OC)c(OC)c1)C(=O)/C=C/c1ccc(OC)c(OC)c1 | % | 56

We next turn to a different compound, shown below.
## Input For the compound shown here, COc1ccc(/C=C/C(=O)C(CC(=O)N(C)C)=C(O)/C=C/c2ccc(OC)c(OC)c2)cc1OC , give the reported Concentration change (%) (stability) in acidic condition.
## Output 8
